Values from paper PMC9056355

Target sequence: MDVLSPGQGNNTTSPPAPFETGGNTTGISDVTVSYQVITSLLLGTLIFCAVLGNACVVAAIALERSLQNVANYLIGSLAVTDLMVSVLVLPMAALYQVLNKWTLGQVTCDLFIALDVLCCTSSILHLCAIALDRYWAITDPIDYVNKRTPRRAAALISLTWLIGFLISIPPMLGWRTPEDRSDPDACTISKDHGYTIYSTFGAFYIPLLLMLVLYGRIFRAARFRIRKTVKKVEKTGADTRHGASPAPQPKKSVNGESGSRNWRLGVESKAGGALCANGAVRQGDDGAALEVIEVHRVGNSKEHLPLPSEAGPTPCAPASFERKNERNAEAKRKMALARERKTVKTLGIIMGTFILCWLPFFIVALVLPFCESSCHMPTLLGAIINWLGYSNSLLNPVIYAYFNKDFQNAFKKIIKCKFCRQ
pKi: −log10 of the molar value.
METRIC_NAME: pKi

Some molecules with recorded pKi:
In: Would you mind telling me what pKi value was observed for CC(=O)Nc1cccc(OCc2nnc(SCc3ccccc3Cl)o2)c1 [Compound 10e] ?
Out: 8.70

In: Entry CC(=O)Nc1cccc(OCc2nnc(SCc3ccc(C(F)(F)F)cc3)o2)c1 [Compound 10j] please
Out: 8.38

In: Please give the result for O=C1CCc2ccc(OCc3nnc(SCc4ccc(Cl)cc4)o3)cc2N1 [Compound 5g] too.
Out: 8.75

[P] O=C1CCc2ccc(OCc3nnc(SCc4ccc(C(F)(F)F)cc4)o3)cc2N1 [Compound 5h]
[Q] CC(=O)Nc1cccc(OCc2nnc(SCc3ccc(Cl)cc3)o2)c1 [Compound 10g]
In: Which of the two gives a bigger number for pKi: P or Q ? Answer with the label corresponding to your selection.
Out: Q
(Q: 8.77, P: 8.56)

* * *

# System: mice (immobility in FST)
# EXPERIMENT_SUMMARY: Forced swimming test
# Assay type: in vivo, Kunming mice
# EXPERIMENTAL_CONTEXT: mice, 40 mg kg^-1
METRIC_NAME: Antidepressant activity in FST, significance compared with the control group

Past entries and their recorded results:
In: What does the data say about its Antidepressant activity in FST, significance compared with the control group? Entry: CC(=O)Nc1cccc(OCc2nnc(SCc3cccc(Cl)c3)o2)c1 [Compound 10f]
Out: significant

In: And the next one, O=C1CCc2ccc(OCc3nnc(SCc4ccc(F)cc4)o3)cc2N1 [Compound 5f] ?
Out: significant

In: Would you mind doing CC(=O)Nc1cccc(OCc2nnc(SCc3ccc(Cl)cc3)o2)c1 [Compound 10g] as well?
Out: high significant

In: Cool, now CC(=O)Nc1cccc(OCc2nnc(SCc3ccc(C(F)(F)F)cc3)o2)c1 [Compound 10j]
Out: high significant

In: Please give the result for CC(=O)Nc1cccc(OCc2nnc(SCc3ccccc3Cl)o2)c1 [Compound 10e] too.
Out: high significant

Now for another entry.
In: Consider the molecule CC(=O)Nc1cccc(OCc2nnc(SCc3ccc(C)cc3)o2)c1 [Compound 10m] and give its measured Antidepressant activity in FST, significance compared with the control group.
Out: significant
